STUDY_TARGET: human thymidine kinase 1 (hTK1) (Homo sapiens, UniProt P04183)
Sequence (P04183 whole entry): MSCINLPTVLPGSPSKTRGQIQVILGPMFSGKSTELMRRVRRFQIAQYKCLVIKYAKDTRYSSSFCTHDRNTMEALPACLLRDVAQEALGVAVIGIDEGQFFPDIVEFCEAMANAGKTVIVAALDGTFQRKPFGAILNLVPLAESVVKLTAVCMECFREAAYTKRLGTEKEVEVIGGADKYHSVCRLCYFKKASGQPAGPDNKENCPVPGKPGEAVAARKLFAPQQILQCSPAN
TEST_DETAILS: hTK-1 kinase phosphorylation, metabolites monitored by LC/MS-SIM
SETTINGS: in vitro
Reported Pi % (phosphorylation percentage) values for the following molecules.
METRIC: Pi % (phosphorylation percentage)

MOLECULE	METRIC	RESULT
Cc1cn([C@H]2CC(O)[C@@H](CO)O2)c(=O)n(CC(O)CF)c1=O (stereo partly drawn)	Pi % (phosphorylation percentage)	27.5%
Cc1cn([C@H]2CC(O)[C@@H](CO)O2)c(=O)n(Cc2cn(CCF)nn2)c1=O (stereo partly drawn)	Pi % (phosphorylation percentage)	65.6%
Cc1cn([C@@H]2O[C@H](CO)C(O)C2OCCF)c(=O)[nH]c1=O (stereo partly drawn)	Pi % (phosphorylation percentage)	5.6%

Origin of the recorded values: patent US7928210B2
